- test_target: BRD4-BD1 (Homo sapiens)
- assay_procedure: BRD4-BD1 FRET binding
- measurement_context: BRD4-BD1, FRET binding, n = 4
Overview of recorded pIC50 ± SD for various molecules

COCCNc1nnc2c3ccc(-c4c(C)noc4C)cc3n(Cc3ccccc3)c2n1 [Compound 12a]; 7.53 ± 0.12
COCCNc1nnc2c(n1)[nH]c1ccc(-c3c(C)noc3C)cc12; 5.64 ± 0.05
COCCNc1nnc2c(n1)[nH]c1cc(-c3c(C)noc3C)ccc12; 6.22 ± 0.05

Measured pIC50 ± SD of COCCNc1nnc2c3ccc(-c4c(C)noc4C)cc3n(C(c3ccccc3)C3CCNCC3)c2n1 (centres unmarked) : 7.63 ± 0.05

Measured pIC50 ± SD of COCCNc1nnc2c3ccc(-c4c(C)noc4C)cc3n(C(c3ccccc3)C3CCOCC3)c2n1 (centres unmarked) : 8.27 ± 0.31

Measured pIC50 ± SD of COCCNc1nnc2c3cc(-c4c(C)noc4C)ccc3n(Cc3ccc(F)cc3)c2n1 [Compound 13b] : 6.18 ± 0.05

Measured pIC50 ± SD of COCCNc1nnc2c3cc(-c4c(C)noc4C)ccc3n(Cc3ccccc3)c2n1 [Compound 12b] : 6.08 ± 0.34

Measured pIC50 ± SD of COCCNc1nnc2c3ccc(-c4c(C)noc4C)cc3n(C(c3ccccn3)C3CCOCC3)c2n1 (centres unmarked) : 8.01 ± 0.11

Measured pIC50 ± SD of COCCNc1nnc2c3ccc(-c4c(C)noc4C)cc3n(Cc3ccc(F)cc3)c2n1 [Compound 13a] : 7.34 ± 0.04

Measured pIC50 ± SD of COCCNc1nnc2c3ccc(-c4c(C)noc4C)cc3n(C(c3ccccn3)C3CCNCC3)c2n1 (centres unmarked) : 7.74 ± 0.12

Measured pIC50 ± SD of COCCNc1nnc2c3cc(-c4c(C)noc4C)ccc3n(C(c3ccccc3)C3CCOCC3)c2n1 (centres unmarked) : 6.33 ± 0.03

* * *

Overview of recorded Papp for various compounds
- assay_procedure: parallel artificial membrane permeability assay (PAMPA)
- Assay type: in vitro ADME
Give just the numeric value; ×10⁻⁶ cm/s need not be written.

Consider the following illustrative entries.
Cc1nnn(C)c1-c1ccc2c3nnc(NCCO)nc3n([C@@H](c3ccccn3)C3CCOCC3)c2c1 (single isomer, unassigned); 7.78
Cc1nnn(C)c1-c1cnc2c3ccc(C(C)(C)O)cc3n([C@@H](c3ccccc3)C3CCOCC3)c2c1 (stereo in doubt) [Compound 4, BMS-986158, reference compound]; 49.8

Measured Papp of Cc1nnn(C)c1-c1ccc2c3nnc(NCCO)nc3n([C@H](c3ccccn3)C3CCOCC3)c2c1 (single isomer, unassigned) : 9.36

Measured Papp of Cc1nnn(C)c1-c1ccc2c3nnc(NCCO)nc3n(C(c3ccccn3)C3CCOCC3)c2c1 (stereo not drawn) : 10.4

* * *

- test_target: BRD4-BD1 (Homo sapiens, UniProt O60885)
- assay_procedure: lipophilic efficiency (LipE = pIC50 – cLogP)
- measurement_context: predicted using Data Warrior
measured_metric: LipE
// return a plain number; no unit text

Consider the following illustrative entries.
Cc1nnn(C)c1-c1ccc2c3nnc(NCCO)nc3n([C@H](c3ccccn3)C3CCOCC3)c2c1 (single isomer, unassigned); 5.83
COCCNc1nnc2c3ccc(-c4c(C)noc4C)cc3n(C(c3ccccn3)C3CCNCC3)c2n1 (centres unmarked); 4.25
COCCNc1nnc2c3ccc(-c4c(C)noc4C)cc3n(Cc3ccccc3)c2n1 [Compound 12a]; 4.22
Cc1nnn(C)c1-c1ccc2c3nnc(NCCO)nc3n(C(c3ccccn3)C3CCOCC3)c2c1 (centres unmarked); 5.79
COCCNc1nnc2c3ccc(-c4c(C)noc4C)cc3n(C(c3ccccn3)C3CCOCC3)c2n1 (centres unmarked); 4.38
COCCNc1nnc2c3cc(-c4c(C)noc4C)ccc3n(Cc3ccccc3)c2n1 [Compound 12b]; 2.77
COCCNc1nnc2c3ccc(-c4c(C)noc4C)cc3n(C(c3ccccc3)C3CCNCC3)c2n1 (centres unmarked); 3.20
COCCNc1nnc2c3ccc(-c4c(C)noc4C)cc3n(C(c3ccccc3)C3CCOCC3)c2n1 (centres unmarked); 3.69

Measured LipE of Cc1noc(C)c1-c1ccc2c3nnc(NCCO)nc3n(C(c3ccccn3)C3CCNCC3)c2c1 (centres unmarked) : 4.23

Measured LipE of Cc1nnn(C)c1-c1ccc2c3nnc(NCCO)nc3n([C@@H](c3ccccn3)C3CCOCC3)c2c1 (single isomer, unassigned) : 6.16

Measured LipE of "COCCNc1nnc2c(n1)[nH]c1ccc(-c3c(C)noc3C)cc12" : 3.82

Measured LipE of COCCNc1nnc2c3ccc(-c4c(C)nnn4C)cc3n(C(c3ccccn3)C3CCNCC3)c2n1 (centres unmarked) : 4.93

Measured LipE of COCCNc1nnc2c3ccc(-c4c(C)noc4C)cc3n(Cc3ccc(F)cc3)c2n1 [Compound 13a] : 3.93

Measured LipE of COCCNc1nnc2c3cc(-c4c(C)noc4C)ccc3n(Cc3ccc(F)cc3)c2n1 [Compound 13b] : 2.77
